tested on: HEK-293T; test: Multiplex assay against HEK293T; assay type: toxicity, cell-based; conditions: human, 12 h, 10 µM, compound concentration 10 uM, replicate 1
The threshold is 30%. Values of Population Healthy Nuclei (%) beneath it are tagged y; values meeting or exceeding it are tagged n.

Dear colleague, could you confirm whether Population Healthy Nuclei (%) of `COc1cc(Nc2nccc(-c3cnn4nc(OC)ccc34)n2)cc(C(F)(F)F)c1` falls below 30%? Thanks. y

O=C(c1cc2c(cc1F)OC(c1ccc(F)cc1)(c1ccc(Cl)cc1Cl)O2)N1CCOCC1 (centres undefined) , same question. y

`CC(C)OC(=O)N1CCC(Oc2ncnc3c2cnn3-c2ccc(S(C)(=O)=O)cc2F)CC1` , same question. n

CNC(=O)Nc1ccc2c(c1)[C@@]1(CC2)OC(=O)N(CC(=O)N(Cc2ccc(F)cc2)[C@@H](C)C(F)(F)F)C1=O [A-486] , same question. n

COc1cc2ncn(-c3cc(OCc4ccccc4C(F)(F)F)c(C(N)=O)s3)c2cc1OC [GW843682X] , same question. n

`Cl.O=C(O)c1cc(-c2ccc(C3CCNCC3)cc2)c2ccc(-c3ccc(C(F)(F)F)cc3)cc2c1` , same question. y

Cc1ccccc1C(c1ccccc1C)N1C2CCC1CC(O)(c1ccccc1)C2 (centres undefined) , same question. n

Cc1c[nH]c2nccc(Oc3c(F)cc(Nc4cc(Cl)nc(N)n4)cc3F)c12 [BAY-549] , same question. n

`CC(C)Oc1ccccc1C(=O)Nc1ccccc1C(=O)Nc1cccc(S(=O)(=O)C(F)(F)F)c1` , same question. n
